Test system: MOLT-4 leukemia
Test: NCI-60 one-dose screen, 48 h (100 = growth as untreated, 0 = no growth, -100 = all killed)
Conditions: 10 µM
Compounds without any hit were thinned out: in the full panel of roughly 83,000, 20% have a hit.
value.type: growth (%)

                                   compound  numeric_readout
0           CCCCCCCCCCCC[n+]1ccc(C(N)=O)cc1             13.6
1  O=C(N/N=C/c1ccccc1O)C(O)(c1ccccc1)c1ccccc1             31.2
2  Fc1ccc2nc(-c3nc(-c4ccccc4)n4ccccc34)[nH]c2c1             39.8
3  CCc1ccc2c(c1)N(CCO)C1=C(C(=O)OC1)C2c1cc(OC)c(OC)c(OC)c1 (stereo not given)             11.4
4  O=C(Nc1ccc(Cl)c([N+](=O)[O-])c1)Nc1nc2ccccc2s1             79.7
5  O=C1c2ccc3c4c(ccc(c24)C(=O)N1CCNCc1ccccc1)C(=O)N(CCNCc1ccccc1)C3=O            -9.12
6  CN1CC[C@@H](c2c(O)cc(O)c3c(=O)cc(-c4ccccc4Cl)oc23)[C@@H](O)C1            -6.09
7                   CC1(C)CCC(=NNC(N)=S)CC1             99.8
8  O=S(=O)(NCCNc1nccc(-c2c(-c3ccc(F)cc3)nc3sccn23)n1)c1ccc2ccccc2c1               54
9          Cc1ccc(NC(=O)Nc2c(Cl)cccc2Cl)cn1             86.9

====

System: SN12C renal
Assay: NCI-60 one-dose screen, 48 h (100 = growth as untreated, 0 = no growth, -100 = all killed)
Conditions: 10 µM
The panel holds about 83,000 compounds, 20% with a hit somewhere; the sample as a whole holds those more often.
// Criterion not met strictly below 50% in growth; Criterion met otherwise

>>> print(df.to_string())
                                   compound        group_label
0  CC(=O)N1N=C(c2ccc(Cl)cc2)CC1c1sc(Cl)nc1Cl (stereo not given)      Criterion met
1  Cc1ccc(NC(=O)Nc2nc3ccccc3s2)cc1NC(=O)Nc1nc2ccccc2s1      Criterion met
2  COc1ccc(-c2nn(-c3cccc(NC(=O)c4cc(C(F)(F)F)cc(C(F)(F)F)c4)c3)cc2-c2ccncc2)cc1Cl      Criterion met
3  Nc1ccc2c(c1)C1(CCC2)NC(=O)NC1=O (stereo not given)      Criterion met
4  CCCCCC(=O)c1ccc(OCCCN2CCN(C(=O)OCC)CC2)cc1      Criterion met
5  CN(C)CCN=c1nc2c(c(N)n1-c1ccccc1)c(=S)n(-c1ccccc1)c(=S)n2-c1ccccc1      Criterion met
6  O=C1/C(=C\c2ccc(Br)cc2)CN(C(=O)c2ccccc2F)C/C1=C\c1ccc(Br)cc1  Criterion not met
7            Cc1cc(=O)n2nnc3c4ccccc4ccc3n12  Criterion not met
8  COc1ccc2c(c1)C(=O)c1c-2c(OCCN(C)C)nc2ccccc12  Criterion not met
9  COc1ccc(N=C2C(=Nc3ccc(OC)cc3)N(c3ccc(N(C)C)cc3)C(=S)N2c2ccc(OC)cc2)cc1      Criterion met
